Measured Target: Sodium-dependent dopamine transporter (Homo sapiens); also: assay procedure not described here
Sequence (Q01959 whole entry): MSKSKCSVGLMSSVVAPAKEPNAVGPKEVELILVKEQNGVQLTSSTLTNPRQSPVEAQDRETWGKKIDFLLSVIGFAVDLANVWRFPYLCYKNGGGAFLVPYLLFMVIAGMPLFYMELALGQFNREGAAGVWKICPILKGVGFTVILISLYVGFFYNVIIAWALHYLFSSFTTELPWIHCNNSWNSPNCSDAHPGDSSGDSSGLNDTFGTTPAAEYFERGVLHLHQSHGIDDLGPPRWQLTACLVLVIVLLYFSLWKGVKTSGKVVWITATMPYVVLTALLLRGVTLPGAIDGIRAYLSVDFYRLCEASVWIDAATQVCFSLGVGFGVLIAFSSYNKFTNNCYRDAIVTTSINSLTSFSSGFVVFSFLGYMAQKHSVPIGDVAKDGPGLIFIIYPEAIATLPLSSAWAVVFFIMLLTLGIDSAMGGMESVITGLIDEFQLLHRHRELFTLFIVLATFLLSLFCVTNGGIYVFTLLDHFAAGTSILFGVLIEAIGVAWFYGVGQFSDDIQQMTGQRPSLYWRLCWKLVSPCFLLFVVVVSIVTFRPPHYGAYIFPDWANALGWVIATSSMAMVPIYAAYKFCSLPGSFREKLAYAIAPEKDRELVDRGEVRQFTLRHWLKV
Result Type: AC50

Below: 8 compounds and their reported AC50.
* CN1C(=O)CC(c2ccccc2)C1=O (centres undefined) [PHENSUXIMIDE] | > 10 µM
* C1=Cc2cccc(OCC3CNCCO3)c2C1 (centres undefined) | 12 µM
* CC(=O)O[C@]1(C(C)=O)CC[C@H]2[C@@H]3C[C@H](C)C4=CC(=O)CC[C@]4(C)[C@H]3CC[C@@]21C [MEDROXYPROGESTERONE ACETATE] | > 30 µM
* CC(=O)N(CC(O)CO)c1c(I)c(C(=O)NCC(O)CO)c(I)c(C(=O)NCC(O)CO)c1I (centres undefined) [IOHEXOL] | > 30 µM
* NC(N)=Nc1nc(CSCCC(N)=NS(N)(=O)=O)cs1 | > 10 µM
* COc1ccccc1OCC(O)COC(N)=O (centres undefined) | > 10 µM
* CC(C)C(=O)Nc1ccc([N+](=O)[O-])c(C(F)(F)F)c1 [FLUTAMIDE] | > 10 µM
* CCOC(=O)[C@H](CCc1ccccc1)N[C@H]1CCCN2CCC[C@@H](C(=O)O)N2C1=O | > 30 µM

Proceed to the following item.
In: Please give the documented AC50 of `O=C(O)Cc1cn(-c2ccccc2)nc1-c1ccc(Cl)cc1`
Out: > 30 µM

====

Measured Target: UniProtKB Q14432
Sequence (Q14432 whole entry): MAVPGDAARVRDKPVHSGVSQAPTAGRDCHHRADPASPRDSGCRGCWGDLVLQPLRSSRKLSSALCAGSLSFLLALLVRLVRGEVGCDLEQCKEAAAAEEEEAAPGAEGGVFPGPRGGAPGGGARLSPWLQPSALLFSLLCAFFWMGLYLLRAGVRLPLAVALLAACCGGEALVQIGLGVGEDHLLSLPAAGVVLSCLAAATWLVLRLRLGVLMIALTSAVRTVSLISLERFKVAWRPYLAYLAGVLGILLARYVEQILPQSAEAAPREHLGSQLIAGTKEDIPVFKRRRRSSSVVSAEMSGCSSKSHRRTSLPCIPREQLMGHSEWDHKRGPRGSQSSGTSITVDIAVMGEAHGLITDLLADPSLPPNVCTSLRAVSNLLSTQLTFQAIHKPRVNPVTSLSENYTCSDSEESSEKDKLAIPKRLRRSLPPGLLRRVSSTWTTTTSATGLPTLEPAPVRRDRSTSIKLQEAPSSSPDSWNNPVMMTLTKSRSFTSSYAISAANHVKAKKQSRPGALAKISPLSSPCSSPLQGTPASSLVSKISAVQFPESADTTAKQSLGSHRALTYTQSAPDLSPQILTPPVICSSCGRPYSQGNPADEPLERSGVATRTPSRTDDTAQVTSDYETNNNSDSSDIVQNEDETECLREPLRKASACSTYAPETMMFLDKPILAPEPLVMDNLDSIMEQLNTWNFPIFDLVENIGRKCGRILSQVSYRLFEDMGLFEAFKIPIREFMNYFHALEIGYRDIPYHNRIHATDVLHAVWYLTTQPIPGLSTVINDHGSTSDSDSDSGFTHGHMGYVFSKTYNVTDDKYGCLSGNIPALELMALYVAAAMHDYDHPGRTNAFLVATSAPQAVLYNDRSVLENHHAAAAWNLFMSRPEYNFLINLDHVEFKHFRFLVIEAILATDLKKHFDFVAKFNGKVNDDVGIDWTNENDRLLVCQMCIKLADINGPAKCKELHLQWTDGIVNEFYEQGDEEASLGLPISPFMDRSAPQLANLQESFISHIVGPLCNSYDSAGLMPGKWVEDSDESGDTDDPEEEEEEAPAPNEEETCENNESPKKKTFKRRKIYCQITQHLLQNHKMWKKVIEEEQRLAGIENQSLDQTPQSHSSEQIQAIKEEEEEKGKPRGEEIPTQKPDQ
Type: functional
What AC50 was measured for each of the following?

- O=C1CN=C(c2ccccc2)c2cc(Cl)ccc2N1CC(F)(F)F [HALAZEPAM]: > 30 µM
- COC(=O)N[C@H](C(=O)N1CCC[C@H]1c1nc(-c2ccc(-c3ccc(-c4c[nH]c([C@@H]5CCCN5C(=O)[C@@H](NC(=O)OC)C(C)C)n4)cc3)cc2)c[nH]1)C(C)C: > 30 µM
- CN(C/C=C/c1ccccc1)Cc1cccc2ccccc12 [NAFTIFINE]: > 30 µM
- O=C(O)c1cc(-c2ccc(F)cc2F)ccc1O [DIFLUNISAL]: > 30 µM
- Cc1cccc(C)c1NC(=O)C1CCCCN1C (stereo not given) [MEPIVACAINE]: > 30 µM
- CN[C@@H]1[C@H](O)[C@H](NC)[C@H]2O[C@@]3(O)C(=O)C[C@@H](C)O[C@H]3O[C@@H]2[C@H]1O [SPECTINOMYCIN]: > 30 µM
- O=C(O)CCn1c2c(c3ccccc31)C[C@H](NS(=O)(=O)c1ccc(F)cc1)CC2 [RAMATROBAN]: > 30 µM
- CCC(C(=O)O)c1ccc(CC(C)C)cc1 (stereo not given) [BUTIBUFEN]: > 30 µM
- COc1ccc2c(c1)C(=O)N(CCc1ccc(S(=O)(=O)NC(=O)NC3CCCCC3)cc1)C(=O)C2(C)C [GLIQUIDONE]: 5.3 µM
- CC(C)C(=O)Nc1ccc([N+](=O)[O-])c(C(F)(F)F)c1 [FLUTAMIDE]: > 10 µM

# return AC50 for each item in the list
1. Nc1nc(N)c2nc(-c3ccccc3)c(N)nc2n1
2. CN(CCOc1ccc(NS(C)(=O)=O)cc1)CCc1ccc(NS(C)(=O)=O)cc1 [DOFETILIDE]
3. CN1C(=O)CC(=O)N(c2ccccc2)c2cc(Cl)ccc21 [CLOBAZAM]

Out:
["> 30 µM", "> 30 µM", "> 30 µM"]
